TESTED_ON: MSUT2 (Homo sapiens (Human), UniProt Q6PJT7)
Sequence (Q6PJT7 whole entry, species assumed): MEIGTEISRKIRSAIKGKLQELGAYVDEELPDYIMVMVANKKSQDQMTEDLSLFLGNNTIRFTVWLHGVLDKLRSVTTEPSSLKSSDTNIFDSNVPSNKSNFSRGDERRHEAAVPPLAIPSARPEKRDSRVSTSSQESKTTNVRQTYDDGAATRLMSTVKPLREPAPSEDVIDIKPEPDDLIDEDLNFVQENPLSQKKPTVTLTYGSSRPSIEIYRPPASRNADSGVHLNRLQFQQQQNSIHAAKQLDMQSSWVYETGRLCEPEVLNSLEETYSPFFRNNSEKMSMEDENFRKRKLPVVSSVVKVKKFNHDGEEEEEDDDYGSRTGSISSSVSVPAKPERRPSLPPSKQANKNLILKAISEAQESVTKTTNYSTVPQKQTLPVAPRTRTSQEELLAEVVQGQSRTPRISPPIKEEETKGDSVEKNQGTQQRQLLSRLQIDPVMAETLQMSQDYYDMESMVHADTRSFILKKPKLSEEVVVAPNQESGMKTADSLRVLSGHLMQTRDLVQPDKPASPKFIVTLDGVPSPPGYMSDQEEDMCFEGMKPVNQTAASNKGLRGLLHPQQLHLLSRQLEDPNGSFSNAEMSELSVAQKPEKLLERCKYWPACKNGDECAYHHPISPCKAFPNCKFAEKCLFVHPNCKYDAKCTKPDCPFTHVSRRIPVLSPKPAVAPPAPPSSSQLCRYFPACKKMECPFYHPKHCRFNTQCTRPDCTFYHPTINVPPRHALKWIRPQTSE
MEASUREMENT_DESCRIPTION: primary tau-inclusion neuronal assay (MSUT2 inhibitor activity)
MEASUREMENT_SETUP: dose-dependent activity, primary tau-inclusion neuronal assay
Method: A variety of analogs in which the tricycle scaffold was modified were prepared and evaluated for their MSUT2 inhibitor activity. The N-substitution pattern was also explored. The dose-dependent activity of these compounds was determined using a primary tau-inclusion neuronal assay and is summarized in Table 3 below.
Could you please report measured IC50 for the items listed next?
All answers are understood in µM, so give the number only.

Note to self: IC50 recorded for O=S(=O)(Nc1nc2c(s1)CSc1ccccc1-2)c1ccccc1 was 24.7

IC50 measured on C=C(Cc1nc2c(s1)CSc1ccccc1-2)c1ccc(S(=O)(=O)CC)cc1 = 0.586

// field: IC50; key: C#CCCNC(=O)Nc1nc2c(s1)CSc1ccccc1-2 ; value = 12.2

Item: C#CCOC(=O)Nc1nc2c(s1)CSc1ccccc1-2 | IC50: 14.3

Entry Nc1nc2c(s1)CSc1ccc(F)cc1-2 — recorded IC50 = 22.9

# molecule CC(=O)N1N=C(c2ccccc2)SC12CCSc1ccccc12 (stereo not drawn) ; its IC50 = 16

###

TESTED_ON: MSUT2 (Homo sapiens (Human), UniProt Q6PJT7)
MEASUREMENT_DESCRIPTION: primary tau-inclusion neuronal assay (MSUT2 inhibitor activity)
Assay type: cell-based
MEASUREMENT_SETUP: dose-dependent activity, primary tau-inclusion neuronal assay
REPORTED_ENDPOINT: IC50

The recorded IC50 for entry Nc1nc2c(s1)CCc1ccccc1-2 equals > 100 µM

The reported value for CCS(=O)(=O)c1ccc(C(=O)Nc2nc3c(s2)COc2ccccc2-3)cc1 in terms of IC50 is > 100 µM

Just so you know, measured IC50 for Nc1nc(-c2ccccc2)cs1 came out at > 128 µM
